Each record here notes measured SI.
# Target Desc: hMAO-B (Homo sapiens, UniProt P27338)
# Construct: purchased Sigma-Aldrich
# Sequence (P27338 whole entry): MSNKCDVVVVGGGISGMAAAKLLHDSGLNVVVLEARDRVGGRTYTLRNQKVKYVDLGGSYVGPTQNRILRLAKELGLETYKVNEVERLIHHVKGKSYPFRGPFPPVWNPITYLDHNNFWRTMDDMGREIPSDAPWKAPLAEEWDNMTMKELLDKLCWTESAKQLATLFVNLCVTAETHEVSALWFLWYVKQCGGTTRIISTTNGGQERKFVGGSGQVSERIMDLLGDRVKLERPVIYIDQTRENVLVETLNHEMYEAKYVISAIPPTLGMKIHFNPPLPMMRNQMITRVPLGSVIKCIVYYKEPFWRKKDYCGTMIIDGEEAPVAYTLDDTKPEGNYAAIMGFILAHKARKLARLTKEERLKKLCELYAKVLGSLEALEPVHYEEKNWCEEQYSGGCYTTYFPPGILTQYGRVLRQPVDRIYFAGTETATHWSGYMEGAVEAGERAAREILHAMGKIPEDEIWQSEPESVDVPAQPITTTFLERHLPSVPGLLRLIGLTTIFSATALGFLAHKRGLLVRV
# Method Notes: biochemical
# Type: biochemical
# Conditions: hMAO-B selectivity: IC50 of hMAO-A divided by IC50 of hMAO-B
# Description: All other chemicals were of reagent grade. hMAO-A and -B activities were determined using a continuous spectrophotometric method, as described previously. […] AChE and BChE activities were assayed as described by Ellman et al., with slight modification. […] Reaction rates are expressed as changes in absorbance per min.. Inhibitory activities of AChE and BChE were measured after preincubating enzyme with inhibitors for 15 min before adding DTNB and each substrate. […]
Please give only the number in your answer, with no unit.

Solved cases (2 shown):
[
  {
    "Molecule": "COc1cc(O)c2c(=O)c(-c3ccc(O)cc3O)coc2c1",
    "SI": 2.53
  },
  {
    "Molecule": "COc1cc(O)c2c(=O)c(-c3ccc(OC)c(O)c3)coc2c1 [Compound 10, 7,4′-dimethyl-3′-hydroxygenistein]",
    "SI": 2.32
  }
]

Turning now to a further molecule:
Enquiry: Any idea what its SI is? The molecule is "COc1cc(O)c2c(=O)c(-c3ccc(O)cc3)coc2c1"
Return: 0.48

These entries and their values trace back to paper PMC9822396.
